# ASSAY_SYSTEM: PI3Kα (Homo sapiens)
# Construct: Full length p110 subunits of PI3K α, β and δ, N-terminally labeled with polyHis tag; polyHis (N)
# Sequence (P42336 whole entry): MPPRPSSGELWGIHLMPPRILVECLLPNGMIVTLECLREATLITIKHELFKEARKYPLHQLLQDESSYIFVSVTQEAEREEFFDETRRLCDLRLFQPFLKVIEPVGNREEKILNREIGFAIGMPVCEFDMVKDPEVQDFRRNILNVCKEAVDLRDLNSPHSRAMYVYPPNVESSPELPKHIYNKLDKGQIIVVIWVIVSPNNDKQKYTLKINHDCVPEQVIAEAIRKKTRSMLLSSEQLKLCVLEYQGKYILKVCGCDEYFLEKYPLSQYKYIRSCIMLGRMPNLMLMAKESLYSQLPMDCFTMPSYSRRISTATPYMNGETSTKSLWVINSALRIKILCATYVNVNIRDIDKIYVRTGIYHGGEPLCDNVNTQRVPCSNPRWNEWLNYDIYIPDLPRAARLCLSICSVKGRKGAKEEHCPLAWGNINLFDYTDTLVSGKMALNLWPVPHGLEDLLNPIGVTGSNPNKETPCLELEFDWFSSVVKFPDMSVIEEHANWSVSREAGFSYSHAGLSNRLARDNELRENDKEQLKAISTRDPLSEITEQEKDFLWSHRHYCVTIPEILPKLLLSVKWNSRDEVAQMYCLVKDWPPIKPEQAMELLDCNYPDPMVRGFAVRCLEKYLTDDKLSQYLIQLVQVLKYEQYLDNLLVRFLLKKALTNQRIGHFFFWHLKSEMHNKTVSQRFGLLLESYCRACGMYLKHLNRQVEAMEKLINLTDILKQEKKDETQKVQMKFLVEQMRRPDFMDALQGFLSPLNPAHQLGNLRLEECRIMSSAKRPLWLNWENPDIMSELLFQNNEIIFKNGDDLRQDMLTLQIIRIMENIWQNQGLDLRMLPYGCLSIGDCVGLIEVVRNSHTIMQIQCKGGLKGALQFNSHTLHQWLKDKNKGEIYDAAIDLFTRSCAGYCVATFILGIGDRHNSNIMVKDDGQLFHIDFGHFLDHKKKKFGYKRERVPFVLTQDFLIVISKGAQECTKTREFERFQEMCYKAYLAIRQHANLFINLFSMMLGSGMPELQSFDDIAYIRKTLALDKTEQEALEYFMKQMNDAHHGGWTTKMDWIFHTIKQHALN
# Sequence (P27986 whole entry partner): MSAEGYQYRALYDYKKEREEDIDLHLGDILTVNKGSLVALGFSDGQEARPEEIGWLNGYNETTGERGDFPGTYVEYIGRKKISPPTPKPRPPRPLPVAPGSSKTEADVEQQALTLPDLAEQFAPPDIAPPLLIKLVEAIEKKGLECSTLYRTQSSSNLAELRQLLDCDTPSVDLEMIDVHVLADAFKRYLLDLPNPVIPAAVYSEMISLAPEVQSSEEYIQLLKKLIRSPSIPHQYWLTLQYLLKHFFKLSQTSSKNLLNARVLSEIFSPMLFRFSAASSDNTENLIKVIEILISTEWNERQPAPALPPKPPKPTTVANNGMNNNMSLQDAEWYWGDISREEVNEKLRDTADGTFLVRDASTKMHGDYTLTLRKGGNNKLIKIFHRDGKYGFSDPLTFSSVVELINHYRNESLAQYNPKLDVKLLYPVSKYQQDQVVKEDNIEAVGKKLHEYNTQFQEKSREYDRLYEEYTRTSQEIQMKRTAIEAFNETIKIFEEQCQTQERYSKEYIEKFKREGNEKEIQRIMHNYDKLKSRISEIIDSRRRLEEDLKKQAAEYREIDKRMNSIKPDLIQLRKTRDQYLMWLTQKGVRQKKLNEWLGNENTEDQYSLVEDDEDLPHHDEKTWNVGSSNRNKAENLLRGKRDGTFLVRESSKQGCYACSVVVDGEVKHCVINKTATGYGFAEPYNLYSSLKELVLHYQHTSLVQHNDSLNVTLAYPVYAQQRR
# EXPERIMENT_SUMMARY: In vitro PI3K AlphaScreen assay, PI3Kα
# MEASUREMENT_CONTEXT: PI(4,5)P2 substrate, 20 minutes at room temperature, read-out: P13Kalpha IC50 um
I'd be grateful if you could share measured IC50 for these entries.
Respond numerically; units are µM and should not be typed.

Item `Cc1nc(N)nc(-c2c(Nc3ccc4cccnc4c3)nc3ccc(N4CCN(C(=O)N(C)C)CC4)cn23)n1` has what recorded IC50? 0.04

Now this one: `Cc1nc(N)cc(-c2c(Nc3ccnn3C(=O)N3CCC3)nc3cccnn23)n1` 46.5

Can you handle `Cc1nc(N)cc(-c2c(Nc3ccc(NC(=O)Nc4ccncc4)cc3)nc3ccccn23)n1` next? 0.01

What about this compound? `CNC(=O)c1cccc(Nc2nc3cccnn3c2-c2cc(N)nc(C)n2)c1` 4.94

Further, for `Cc1nc(N)cc(-c2c(Nc3cccc(N4CCN(C)CC4)c3)nc3cccnn23)n1` ? 9.52

Follow-up item: `Cc1cc(Nc2cc[nH]n2)n(-c2cc(N)nc(C)n2)n1` 3.23

Then `Cc1nc(N)nc(-c2c(Nc3ccn(C(=O)Nc4ccccc4)n3)nc3ccccn23)n1` ? 3

Proceed to `Cc1nc(N)cc(-c2c(Nc3ccn(C(=O)NCc4ccccc4)n3)nc3ccccn23)n1` 1.2

Now consider `Cc1nc(N)nc(-c2c(Nc3cc[nH]n3)nc3ccc(-c4ccoc4)cn23)n1` and answer again. 0.04

----------
# Tested on: phosphorylation of Akt at Serine 473 in U87 MG cells
# EXPERIMENT_SUMMARY: pAkt AlphaScreen (U87 cell)
# Type: cell-based
# MEASUREMENT_CONTEXT: Homo sapiens, U-87 MG, 2 h; pAkt at Serine 473, U87 MG cells, two hours with compound
PARAMETER: IC50

I would be grateful if you could share the reported IC50 for Cc1nc(Nc2ccc(N3CCOC(C)C3)nn2)cc(-c2c(Nc3cc[nH]n3)nc3cccnn23)n1 (stereo not shown) . 0.09 µM

// same read-out, input: `Cc1nc(NC(=O)CN(C)C)cc(-c2c(Nc3ccn(C)n3)nc3cccnn23)n1` 0.18 µM

What about `CNC(=O)c1ccc(-c2ccc3nc(Nc4cc[nH]n4)c(-c4nc(C)nc(N)n4)n3c2)cc1F` ? 0.01 µM

# iterate: `Cc1nc(N)cc(-n2nc(C(=O)Nc3cccnc3)cc2Nc2ccn[nH]2)n1` 0.6 µM

----------
# Tested on: phosphorylation of Akt at Serine 473 in U87 MG cells
# EXPERIMENT_SUMMARY: pAkt AlphaScreen (U87 cell)
# Type: cell-based
# MEASUREMENT_CONTEXT: Homo sapiens, U-87 MG, 2 h; pAkt at Serine 473, U87 MG cells, two hours with compound
Give measured pIC50 for each item. Keep answers brief.
Schema: pIC50 number; meaning minus log10 of the concentration expressed in molar units.

Quick one: pIC50 for `Cc1nc(N)cc(-c2c(Nc3ccn(C(=O)Nc4ccccc4C(F)(F)F)n3)nc3cccnn23)n1` ? 8.00

`Cc1nc(Nc2cc(OCC(F)(F)F)cnn2)cc(-c2c(Nc3cc[nH]n3)nc3cccnn23)n1` , same question. 7.70

Also, `Cc1nc(NC(=O)C2CC2)cc(-c2c(Nc3cc[nH]n3)nc3cccnn23)n1` please. 6.96

Note, next up: `CNC(=O)c1cccc(Nc2nc3cccnn3c2-c2cc(N)nc(C)n2)c1` 6.62

----------
# ASSAY_SYSTEM: PI3Kα (Homo sapiens)
# Construct: Full length p110 subunits of PI3K α, β and δ, N-terminally labeled with polyHis tag; polyHis (N)
# EXPERIMENT_SUMMARY: In vitro PI3K AlphaScreen assay, PI3Kα
# MEASUREMENT_CONTEXT: PI(4,5)P2 substrate, 20 minutes at room temperature, read-out: P13Kalpha IC50 um
PARAMETER: pIC50
Would you please state pIC50, meaning minus log10 of the concentration in mol/L, as a bare number?

Recorded pIC50 for Cc1nc(NC(=O)Cc2ccc(F)cc2F)cc(-c2c(Nc3ccn(C)n3)nc3cccnn23)n1 [Cpd 129] , please? 5.31

Could you do the same for Cc1nc(N)cc(-n2nc(C(=O)Nc3cccnc3)cc2Nc2ccn[nH]2)n1 [Cpd 11] , please? 6.18

Then Cc1nc(N)nc(-c2c(Nc3cc[nH]n3)nc3ccccn23)n1 [Cpd 1] ? 6.09

Next entry: Cc1nc(Nc2ccccc2F)cc(-c2c(Nc3cc[nH]n3)nc3cccnn23)n1 [Cpd 31] 5.56

Now consider CNS(=O)(=O)c1ccc(-c2ccc3nc(Nc4cc[nH]n4)c(-c4nc(C)nc(N)n4)n3c2)cc1 [Cpd 351] . 6.32

Also Cc1nc(N)cc(-c2c(Nc3ccn(C(=O)Nc4ccccc4C(F)(F)F)n3)nc3cccnn23)n1 [Cpd 239] ? 5.52

Entry Cc1nc(N)cc(-n2nc(C(=O)NC3CC3)cc2Nc2cc[nH]n2)n1 [Cpd 16] please 5.62

Next compound up: Cc1nc(NC(=O)N(C)C)cc(-c2c(Nc3cc[nH]n3)nc3cccnn23)n1 [Cpd 75] 4.38

Cool, now CNCCNC(=O)n1ccc(Nc2nc3cccnn3c2-c2cc(N)nc(C)n2)n1 [Cpd 258] 7.52

Try the compound COCCOc1cnnc(Nc2cc(-c3c(Nc4ccc(NC(C)=O)cc4)nc4cccnn34)nc(C)n2)c1 [Cpd 53] 7.70

Try the compound Cc1nc(Nc2cccnn2)cc(-c2c(Nc3ccn(C)n3)nc3cccnn23)n1 [Cpd 34] 6.12

Input Cc1nc(N)nc(-c2c(Nc3cc[nH]n3)nc3ccc(-c4ccc5c(c4)CCNC5=O)cn23)n1 [Cpd 175] 6.85

Same for CNC(=O)c1cc(Nc2ccn[nH]2)n(-c2cc(N)nc(C)n2)n1 [Cpd 14] 5.63

Next up: COCCOc1ccn2c(-c3nc(C)nc(N)n3)c(Nc3cc[nH]n3)nc2c1 [Cpd 185] 6.15

And for Cc1nc(Nc2ccc(N3CCOCC3)nn2)cc(-c2c(Nc3cc[nH]n3)nc3ccccn23)n1 [Cpd 49] ? 6.89

Another compound: CC(=O)NCc1ccc(-c2ccc3nc(Nc4cc[nH]n4)c(-c4nc(C)nc(N)n4)n3c2)cc1 [Cpd 100] 6.38

Moving on to Cc1nc(N)nc(-c2c(Nc3cc[nH]n3)nc3ccc(-c4ccc(C(=O)O)cc4C)cn23)n1 [Cpd 177] 7.10

Item: CNc1nc(C)nc(-c2c(Nc3cc[nH]n3)nc3ccccn23)n1 [Cpd 3] 6.09

Okay, and Cc1nc(N)nc(-c2c(Nc3cc[nH]n3)nc3ccc(-c4ccc(F)cc4C)cn23)n1 [Cpd 107] ? 6.60

And for Cc1nc(N)nc(-c2c(Nc3cc[nH]n3)nc3ccc(C4=CCN(C(=O)OC(C)(C)C)CC4)cn23)n1 [Cpd 97] ? 6.46

Try this compound too: Cc1nc(N)cc(-c2c(Nc3ccc(N4CC(O)C4)nc3)nc3cccnn23)n1 [Cpd 272] 6.49

Now consider CNc1cc(-c2c(Nc3cc[nH]n3)nc3ccc(N4CCOCC4)nn23)nc(C)n1 [Cpd 72] . 6.96

Can you handle Cc1nc(Nc2ccc(N3CCOC(C)C3)nn2)cc(-c2c(Nc3cc[nH]n3)nc3cccnn23)n1 (stereo not shown) [Cpd 140] next? 7.22

Next up: Cc1nc(N)nc(-c2c(Nc3ccn(C(=O)NCCO)n3)nc3ccccn23)n1 [Cpd 198] 5.66

Query Cc1nc(N)nc(-c2c(Nc3cc[nH]n3)nc3ccc(-c4ccc(S(C)(=O)=O)cc4)cn23)n1 [Cpd 344] next 7.15

// query: CC(=O)Nc1cccc(-c2ccc3nc(Nc4cc[nH]n4)c(-c4nc(C)nc(N)n4)n3c2)c1 [Cpd 114] 7.00

Another: Cc1nc(Nc2ccc(N3CCN(C)CC3)nn2)cc(-c2c(Nc3cc[nH]n3)nc3cccnn23)n1 [Cpd 35] 6.96

Try this compound next: Cc1nc(NC(=O)CC(F)(F)F)cc(-c2c(Nc3ccn(C)n3)nc3cccnn23)n1 [Cpd 134] 5.68

Same for COc1ccc(Nc2cc(-c3c(Nc4cc[nH]n4)nc4cccnn34)nc(C)n2)cc1 [Cpd 33] 6.18

Please do the same for COCC(=O)Nc1cc(-c2c(Nc3ccn(C)n3)nc3cccnn23)nc(C)n1 [Cpd 123] as well. 5.16

Entry Cc1nc(N)cc(-c2c(Nc3ccn(C)n3)nc3ccc(-c4cccc(S(C)(=O)=O)c4)cn23)n1 [Cpd 65] please 5.06

Try this compound too: CSc1cccc(-c2ccc3nc(Nc4cc[nH]n4)c(-c4nc(C)nc(N)n4)n3c2)c1 [Cpd 109] 6.33

Same again, this time with CCNC(=O)Nc1ccc(Nc2nc3ccccn3c2-c2cc(N)nc(C)n2)cc1 [Cpd 40] 6.35

Same question for Cc1nc(N)nc(-c2c(Nc3ccnn3C(=O)N3CCOCC3)nc3ccccn23)n1 [Cpd 201] please. 5.86
